System: mice bearing PSMA-expressing LNCAP cancer xenografts
Test: Biodistribution of 68Ga-labeled compounds
Type: in vivo
Settings: 3 h post-injection
ASSAY_ENDPOINT: Kidneys uptake (% ID/g)
Give your result in % ID/g as a bare value.

Previously resolved entries follow.
Nc1ccc(CCCC(=O)NCC(=O)N[C@@H](CCCCNC(=O)CN2CCN(CC(=O)[O-])CCN(CC(=O)[O-])CCN(CC(=O)[O-])CC2)C(=O)NC[C@H]2CC[C@H](C(=O)N[C@@H](Cc3ccc4ccccc4c3)C(=O)NCCCC[C@H](NC(=O)N[C@@H](CCC(=O)O)C(=O)O)C(=O)O)CC2)cc1.[68Ga+3] [^68Ga-HTK03087] :: 56.1
O=C([O-])CN1CCN(CC(=O)[O-])CCN(CC(=O)NCC2CCC(C(=O)NC(Cc3c4ccccc4cc4ccccc34)C(=O)NCCCCC(NC(=O)NC(CCC(=O)O)C(=O)O)C(=O)O)CC2)CCN(CC(=O)[O-])CC1.[68Ga+3] (centres unmarked) [^68Ga-HTK03041] :: 121
O=C([O-])CN1CCN(CC(=O)[O-])CCN(CC(=O)NCCCC[C@H](NC(=O)CNC(=O)CCc2ccccc2)C(=O)NC[C@H]2CC[C@H](C(=O)N[C@@H](Cc3ccc4ccccc4c3)C(=O)NCCCC[C@H](NC(=O)N[C@@H](CCC(=O)O)C(=O)O)C(=O)O)CC2)CCN(CC(=O)[O-])CC1.[68Ga+3] [^68Ga-HTK03082] :: 22.3
O=C([O-])CN1CCN(CC(=O)[O-])CCN(CC(=O)NCCCC[C@H](NC(=O)CNC(=O)CCCc2ccccc2)C(=O)NC[C@H]2CC[C@H](C(=O)N[C@@H](Cc3ccc4ccccc4c3)C(=O)NCCCC[C@H](NC(=O)N[C@@H](CCC(=O)O)C(=O)O)C(=O)O)CC2)CCN(CC(=O)[O-])CC1.[68Ga+3] [^68Ga-HTK03056] :: 31.1

Then this molecule:
# Kidneys uptake lookup, item O=C([O-])CN1CCN(CC(=O)[O-])CCN(CC(=O)NCCCC[C@H](NC(=O)CNC(=O)CCCc2ccc(I)cc2)C(=O)NC[C@H]2CC[C@H](C(=O)N[C@@H](Cc3ccc4ccccc4c3)C(=O)NCCCC[C@H](NC(=O)N[C@@H](CCC(=O)O)C(=O)O)C(=O)O)CC2)CCN(CC(=O)[O-])CC1.[68Ga+3] [^68Ga-HTK03024]
12.3

* * *

Listed next: entries and their corresponding Intestine uptake.
Test system: mice bearing PSMA-expressing LNCAP cancer xenografts
Test: Biodistribution of 68Ga-labeled compounds
Format: in vivo
Settings: 1 h post-injection
API: value field is a number in % ID/g; no unit string.

O=C([O-])CN1CCN(CC(=O)[O-])CCN(CC(=O)NCCCC[C@H](NC(=O)CNC(=O)CCCc2ccc(F)cc2)C(=O)NC[C@H]2CC[C@H](C(=O)N[C@@H](Cc3ccc4ccccc4c3)C(=O)NCCCC[C@H](NC(=O)N[C@@H](CCC(=O)O)C(=O)O)C(=O)O)CC2)CCN(CC(=O)[O-])CC1.[68Ga+3] [^68Ga-HTK03085] :: 0.61

With those in mind, consider the next molecule.
Item COc1ccc(CCCC(=O)NCC(=O)N[C@@H](CCCCNC(=O)CN2CCN(CC(=O)[O-])CCN(CC(=O)[O-])CCN(CC(=O)[O-])CC2)C(=O)NC[C@H]2CC[C@H](C(=O)N[C@@H](Cc3ccc4ccccc4c3)C(=O)NCCCC[C@H](NC(=O)N[C@@H](CCC(=O)O)C(=O)O)C(=O)O)CC2)cc1.[68Ga+3] [^68Ga-HTK03086] with mice bearing PSMA-expressing LNCAP cancer xenografts - Intestine uptake?
0.91
